Please provide measured Emax for the entries that follow.
- System Under Test: binding of His-XIAP(BIR2)-avi fusion protein to GST-RIPK2 fusion protein (RIPK2/XIAP) (Homo sapiens, UniProt O43353)
- Construct: made in house; host or cells: baculovirus infected Sf9 cells
- Sequence (O43353 1-310 limits assumed): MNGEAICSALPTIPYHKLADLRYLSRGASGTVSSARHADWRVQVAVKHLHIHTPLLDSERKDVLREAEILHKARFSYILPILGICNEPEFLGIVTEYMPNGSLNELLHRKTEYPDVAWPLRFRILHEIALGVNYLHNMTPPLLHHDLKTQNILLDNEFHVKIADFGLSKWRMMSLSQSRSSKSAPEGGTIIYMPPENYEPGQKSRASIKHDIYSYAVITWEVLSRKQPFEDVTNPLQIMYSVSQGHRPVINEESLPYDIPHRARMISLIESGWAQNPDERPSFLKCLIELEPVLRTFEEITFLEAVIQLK
- Test Protocol: RIPK2-XIAP binding competition PPI assay (TR-FRET)
- Measurement Context: RIPK2/XIAP binding competition PPI assay, Amax; read-out: PPI Amax bin

Some compounds with recorded Emax:
Can you share its Emax? I mean this compound: `C[C@@H](CO)Oc1cc2ncc(-c3cc(F)c(N)nc3F)n2cc1S(=O)(=O)C(C)(C)C`
> 80%

Now this one: `CC(C)(C)S(=O)(=O)c1cn2c(-c3cc(F)c(N)nc3F)cnc2cc1C(=O)NCCO`
> 80%

Same read-out for `CCCS(=O)(=O)Nc1cc(-c2cnc3cc(OC)c(C(=O)N4CCNCC4)cn23)cc(F)c1OC` ?
> 80%

// same read-out, input: `COc1ccn2ncc(-c3cc(N)cc(F)c3)c2n1`
< 30%

Repeat with `CC(C)(C)S(=O)(=O)c1cn2c(-c3cnc4nccn4c3)cnc2cc1OCCO`
< 30%

Value sought for every listed compound: Emax.
1. COc1cc2ncc(-c3cc(F)c(N)nc3F)n2cc1S(=O)(=O)C1(C)CCN(C2COC2)CC1
2. COC1(COc2cc3ncc(-c4cc(F)c(N)nc4F)n3cc2S(=O)(=O)C(C)(C)C)COC1
3. CC(C)(C)S(=O)(=O)c1cn2c(-c3ccc4nccn4c3)cnc2cc1OCCO

1: > 80%; 2: > 80%; 3: < 30%

Data provenance: patent US20260137706A1
